Record form. Attribute: RFP signal change. Fill in for each entry.
experiment: reduced GFP signal of wild-type E. coli, primary screen, bacterial rRNA inhibitor project, GFP/RFP fluorescence, OD600, single point (AID 720706); conditions: E. coli WT GFP vs humanized-ribosome RFP mutants, 24 h; measured here: RFP humanized mutant strains, concentration not given here unless noted
Hit rate of the full screen: of about 350,000 compounds, about 5,500 (1.6%) were called active. The full list was thinned out, with actives kept by preference.
One number for each entry, in %.

Example molecules with recorded RFP signal change:
Tell me the measured RFP signal change of O=C(CN1CCCC1=O)NCCc1ccccc1 , please. 2.04

What value of measured RFP signal change is listed for COC(=O)[C@@H]1[C@@H](CO)[C@@H]2Cn3c(ccc(C4=CCCCC4)c3=O)[C@H]1N2CC1CC1 ? -0.887

May I ask what RFP signal change has been recorded for COC(=O)[C@@H]1[C@@H](CO)[C@@H]2Cn3c(ccc(-c4cccc(C(=O)N(C)C)c4)c3=O)[C@H]1N2C(=O)NC(C)C ? -0.784

Which RFP signal change value belongs to O=C1CC(=O)N(Cc2ccccc2)C(=O)N1CCCCCCN1C(=O)CC(=O)N(Cc2ccccc2)C1=O ? -3.78

RFP signal change for O=C(Cc1ccccc1)N1CCCCN2[C@H](C1)[C@H](c1ccc(C#CC3(O)CCCC3)cc1)[C@@H]2CO ? -2.06

If you can, please state the reported RFP signal change value of Cc1ncoc1C(=O)NCC1=C(c2cccc3ccccc23)C[C@@H]2CC[C@H]1N2Cc1ccco1 . -7.54

Item O=C(Cc1ccncc1)N1CCCCN2[C@H](CO)[C@@H](c3ccc(C#CC4(O)CCCC4)cc3)[C@H]2C1 has what recorded RFP signal change? 1.41

# RFP signal change lookup, item CCC(C)NC1(c2ccccc2)CCCCC1 (stereo not given) 4.1

Please give RFP signal change, item by item, for the list that follows.
1. O=[N+]([O-])c1cnc2ccc3ccccc3c2c1
2. O=C(O)[C@H]1[C@H](CO)[C@H]2Cn3c(cccc3=O)[C@@H]1N2C(=O)c1ccccc1

1. -31.1
2. -1.92
